Source: patent EP4656640A1

# TGT: IRAK4 (Homo sapiens)
# Sequence (Q9NWZ3 whole entry): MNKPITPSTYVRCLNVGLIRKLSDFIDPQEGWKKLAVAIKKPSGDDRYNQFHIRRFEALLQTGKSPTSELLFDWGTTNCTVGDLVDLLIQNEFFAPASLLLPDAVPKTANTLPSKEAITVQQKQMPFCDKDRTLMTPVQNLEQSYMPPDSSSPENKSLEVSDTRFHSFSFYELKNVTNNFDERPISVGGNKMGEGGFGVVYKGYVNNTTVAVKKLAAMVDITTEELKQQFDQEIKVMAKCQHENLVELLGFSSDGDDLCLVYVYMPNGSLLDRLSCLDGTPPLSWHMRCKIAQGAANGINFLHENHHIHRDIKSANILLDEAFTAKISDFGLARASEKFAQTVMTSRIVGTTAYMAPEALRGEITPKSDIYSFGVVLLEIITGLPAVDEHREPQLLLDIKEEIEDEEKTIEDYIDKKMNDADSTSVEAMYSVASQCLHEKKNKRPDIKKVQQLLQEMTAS
# PROTOCOL_DETAILS: Degradation of IRAK4 in SU-DHL-2 cells (flow cytometry)
# Format: cell-based
# Design: The degradation level of IRAK4 protein in SU-DHL-2 cell line by the compounds was detected by flow cytometry; endogenous in cells; host or cells: SU-DHL-2; OCI-LY3
# REPORTED_CONDITIONS: read-out: SU-DHL-2 DC50
Known log10 of DC50 of a selection of compounds
Friendly reminder: values = log10 of DC50, unit nM.

[[record]]
compound = "Cn1c(=O)n(C2CCC(=O)NC2=O)c2cccc(C#CC(C)(C)N3CC(C(=O)N4CCC5(CC4)CC(n4cc(NC(=O)c6cnn7ccc(N8C[C@H]9C[C@@H]8CO9)nc67)c(C(F)F)n4)C5)C3)c21 (stereo partly shown)"
measurement_kind = "log10 of DC50"
recorded_measurement = 0.60


# input Entry under review: Cn1c(=O)n(C2CCC(=O)NC2=O)c2cccc(C#CCO[C@H]3CC[C@H](C(=O)N4CCC5(CC4)CC(n4cc(NC(=O)c6cnn7ccc(N8C[C@H]9C[C@@H]8CO9)nc67)c(C(F)F)n4)C5)CC3)c21 (stereo partly shown) . Reported log10 of DC50?
# output 0.70

# input Then this compound: Cn1c(=O)n(C2CCC(=O)NC2=O)c2cccc(C#CCN3CC(C(=O)N4CCC5(CC4)CC(n4cc(NC(=O)c6cnn7ccc(N8C[C@H]9C[C@@H]8CO9)nc67)c(C(F)F)n4)C5)C3)c21 (stereo partly shown)
# output 0.70

# input Item: Cn1c(=O)n(C2CCC(=O)NC2=O)c2cccc(C#CC(C)(C)C(=O)N3CCC4(CC3)CC(n3cc(NC(=O)c5cnn6ccc(N7C[C@H]8C[C@@H]7CO8)nc56)c(C(F)F)n3)C4)c21 (stereo partly shown)
# output 1.20

# input Same lookup for Cn1c(=O)n(C2CCC(=O)NC2=O)c2cccc(C#CCOC34CCC(C(=O)N5CCC6(CC5)CC(n5cc(NC(=O)c7cnn8ccc(N9C[C@H]%10C[C@@H]9CO%10)nc78)c(C(F)F)n5)C6)(CC3)CC4)c21 (stereo partly shown) , please.
# output 0.85

# input Also check COc1cc2nn(C3CCC4(CC3)CCN(CC3CCN(c5ccc6c(c5)C(=O)N(C5CCC(=O)NC5=O)C6=O)CC3)CC4)cc2cc1C(=O)Nc1cnc2cccnn12 (stereo not shown)
# output -0.30

# input Okay, and Cn1c(=O)n(C2CCC(=O)NC2=O)c2cccc(C#CCOCCCN3CCC4(CC3)CC(n3cc(NC(=O)c5cnn6ccc(N7C[C@H]8C[C@@H]7CO8)nc56)c(C(F)F)n3)C4)c21 (stereo partly shown) ?
# output 0.04
